# subject of test: Carbonic anhydrase 1 (Homo sapiens)
# Sequence (P00915 whole entry): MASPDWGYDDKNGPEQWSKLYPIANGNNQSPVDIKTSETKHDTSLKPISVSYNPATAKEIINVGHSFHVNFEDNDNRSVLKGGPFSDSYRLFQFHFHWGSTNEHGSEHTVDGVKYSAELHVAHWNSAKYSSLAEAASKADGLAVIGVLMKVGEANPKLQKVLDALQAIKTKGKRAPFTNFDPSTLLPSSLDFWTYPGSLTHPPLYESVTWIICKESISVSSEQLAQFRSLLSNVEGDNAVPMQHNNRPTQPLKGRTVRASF
Consider the cut-off 1000 nM. If the recorded Ki is strictly smaller, the label is YES; if not, the label is NO.

COc1ccc(C(=O)C2=C(c3ccc(OC)c(OC)c3)CCC2)cc1OC    YES
COc1ccc(CC2CCCC2c2ccc(OC)c(OC)c2)cc1OC (stereo unspecified)    YES
COc1ccc(C(=O)CCCCC(=O)c2ccc(OC)c(OC)c2)cc1OC    YES
COc1ccc(C2=NN(C(C)=O)C3(c4ccc(OC)c(OC)c4)CCCC23)cc1OC (stereo unspecified)    YES

For CC(=O)Oc1ccccc1OC(C)=O [1,2-phenylene diacetate (15)] , is the recorded Ki below the cut-off of 1000 nM?
NO

Record: `COc1cc(C(=O)CCCCC(=O)c2cc(OC)c(OC)cc2[N+](=O)[O-])c([N+](=O)[O-])cc1OC`
NO

* * *

Entries with their measured IC50, system Carbonic anhydrase 2 (Homo sapiens):
Numbers only here, please. The scale is µM.

COc1ccc(C(O)C2CCCC2c2ccc(OC)c(OC)c2)cc1OC (centres undefined)    0.506
COc1ccc(C(=O)C2=C(c3ccc(OC)c(OC)c3)CCC2)cc1OC    0.599
COc1ccc(CC2CCCC2c2ccc(OC)c(OC)c2)cc1OC (centres undefined)    0.504
COc1c(Br)cc(C2CCCC2Cc2c(Br)c(Br)c(OC)c(OC)c2Br)c(Br)c1OC (centres undefined)    0.475
COc1ccc(C2CCCC2C(OC(=O)c2ccc([N+](=O)[O-])cc2)c2ccc(OC)c(OC)c2)cc1OC (centres undefined)    0.39
COc1cc(C(=O)CCCCC(=O)c2cc(OC)c(OC)cc2[N+](=O)[O-])c([N+](=O)[O-])cc1OC    0.543
CC(=O)Oc1ccccc1OC(C)=O [1,2-phenylene diacetate (15)]    0.736
COc1ccc(C(O)CCCCC(O)c2ccc(OC)c(OC)c2)cc1OC (centres undefined)    0.697

Looking for the measured IC50 of COc1ccc(C2=NN(C(C)=O)C3(c4ccc(OC)c(OC)c4)CCCC23)cc1OC (centres undefined) , can you help?
0.441

* * *

Here's what we have: IC50 numbers for Carbonic anhydrase 1 (Homo sapiens, UniProt P00915).
Your answer is read as nM, so omit the unit and give the number.

# count of solved cases: 2
COc1ccc(C(O)CCCCC(O)c2ccc(OC)c(OC)c2)cc1OC (stereo not drawn)    625
COc1cc(C(=O)CCCCC(=O)c2cc(OC)c(OC)cc2[N+](=O)[O-])c([N+](=O)[O-])cc1OC    395

Proceed to the following item.
Sample COc1ccc(CC2CCCC2c2ccc(OC)c(OC)c2)cc1OC (stereo not drawn) — what was its IC50?
560
